Known self-splicing fitness (ln) of a selection of sequences
Assay: self-splicing fitness, log relative to wild type (ln ratio); higher = more splicing; Tetrahymena group I intron in knt gene, E. coli kanamycin selection, DiMSum; sequences stand for … in CUCUCU…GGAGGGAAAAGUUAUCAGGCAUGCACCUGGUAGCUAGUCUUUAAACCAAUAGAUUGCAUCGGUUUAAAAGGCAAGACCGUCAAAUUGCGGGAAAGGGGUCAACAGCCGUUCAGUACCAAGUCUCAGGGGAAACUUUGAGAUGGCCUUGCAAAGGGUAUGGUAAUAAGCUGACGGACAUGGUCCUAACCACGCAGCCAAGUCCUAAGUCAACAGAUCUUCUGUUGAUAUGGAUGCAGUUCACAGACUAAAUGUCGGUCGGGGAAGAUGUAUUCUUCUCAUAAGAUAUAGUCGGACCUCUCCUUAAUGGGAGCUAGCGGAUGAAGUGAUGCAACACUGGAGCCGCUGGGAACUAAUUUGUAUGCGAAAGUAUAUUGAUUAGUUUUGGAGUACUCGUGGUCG;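 also: selection with 25 µg/mL kanamycin versus none on LB agar overnight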
Settings: 30 °C
PROPERTY: self-splicing fitness (ln)

| INPUT SEQUENCE | PROPERTY | MEASURED NUMBER |
| --- | --- | --- |
| AAUAAGCAAUAUUACGCCGU | self-splicing fitness (ln) | -1.24 |
| AUGAAGCAAUAUUACGUAUU | self-splicing fitness (ln) | -1.52 |
| UAGAAGCAAUAUUACGGAUC | self-splicing fitness (ln) | -2.24 |
| CACCAGCAAUAUUACGUCAA | self-splicing fitness (ln) | -3.64 |
| CCGCAGCAAUAUUACGCAUC | self-splicing fitness (ln) | -3.93 |
| CCCGAGCAAUAUUACGCUGG | self-splicing fitness (ln) | -3.13 |
| CUUGAGCAAUAUUACGAAGU | self-splicing fitness (ln) | -3.67 |
| UGGGAGCAAUAUUACGCAGA | self-splicing fitness (ln) | -1.08 |
